The measurements presented in this section are drawn from ChEMBL document CHEMBL5518237.

- Tested system: CYP1B1 (Homo sapiens)
- Sequence (Q16678 whole entry): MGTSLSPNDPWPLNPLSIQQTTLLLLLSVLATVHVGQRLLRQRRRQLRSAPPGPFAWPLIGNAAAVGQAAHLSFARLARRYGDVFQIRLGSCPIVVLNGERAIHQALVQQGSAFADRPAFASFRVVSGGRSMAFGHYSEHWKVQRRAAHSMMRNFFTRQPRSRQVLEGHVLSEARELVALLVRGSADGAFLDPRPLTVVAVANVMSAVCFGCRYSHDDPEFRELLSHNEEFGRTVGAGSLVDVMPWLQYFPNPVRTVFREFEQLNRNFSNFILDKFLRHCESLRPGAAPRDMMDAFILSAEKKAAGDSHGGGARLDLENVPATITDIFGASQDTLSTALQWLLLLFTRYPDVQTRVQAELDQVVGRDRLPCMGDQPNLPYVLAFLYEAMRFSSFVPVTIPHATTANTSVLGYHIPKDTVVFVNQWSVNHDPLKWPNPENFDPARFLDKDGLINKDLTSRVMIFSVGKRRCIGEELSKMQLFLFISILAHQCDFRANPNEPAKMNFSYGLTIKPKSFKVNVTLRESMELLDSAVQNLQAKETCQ
- Assay overview: Inhibition of human recombinant CYP1B1 using 7-ethoxyresorufin as substrate at 1 uM preincubated with enzyme for 5 mins followed by fluorescent substrate and NADPH addition and measured after 35 mins by EROD assay
- Type: ADME
- Particulars: recombinant CYP1B1, probe 7-ethoxyresorufin, time 40 min
Below, each entry is listed with its recorded inhibition at 35 min, 1 µM.
Give the value in % but do not write % after it.

Here's what some known entries look like.
Structure smiles string: COc1cccc(-c2nc(N)c3ccc4ccccc4c3n2)c1
Tested system: CYP1B1 (Homo sapiens)
Measurement kind: inhibition at 35 min, 1 µM
Unit string: %
Observed result: 94.8

Structure smiles string: OCCNc1nc(-c2ccc(I)cc2)nc2ccccc12
Tested system: CYP1B1 (Homo sapiens)
Measurement kind: inhibition at 35 min, 1 µM
Unit string: %
Observed result: 96.5

Structure smiles string: Nc1nc(-c2cccc(F)c2)nc2ccccc12
Tested system: CYP1B1 (Homo sapiens)
Measurement kind: inhibition at 35 min, 1 µM
Unit string: %
Observed result: 78.9

Structure smiles string: CCNc1nc(-c2ccc(I)cc2)nc2ccccc12.Cl
Tested system: CYP1B1 (Homo sapiens)
Measurement kind: inhibition at 35 min, 1 µM
Unit string: %
Observed result: 95.2

Query :: What value of inhibition at 35 min, 1 µM has been recorded for this entry: Cl.FCCNc1nc(-c2ccc(I)cc2)nc2ccccc12
Result :: 95.5

Query :: What value of inhibition at 35 min, 1 µM has been recorded for this entry: Ic1ccc(-c2nc(N3CCCC3)c3ccccc3n2)cc1
Result :: 94.9

Query :: What value of inhibition at 35 min, 1 µM has been recorded for this entry: Nc1nc(-c2cccc(F)c2)nc2c1ccc1ccccc12
Result :: 94.5

Query :: What value of inhibition at 35 min, 1 µM has been recorded for this entry: Cc1ccc(-c2nc(N)c3ccc4ccccc4c3n2)cc1
Result :: 75.3

---

Below, each entry is listed with its recorded inhibition at 35 min, 1 µM.
- Tested system: CYP1B1 (Homo sapiens)
- Assay overview: Inhibition of human recombinant CYP1B1 using 7-ethoxyresorufin as substrate at 1 uM preincubated with enzyme for 5 mins followed by fluorescent substrate and NADPH addition and measured after 35 mins by EROD assay
- Format: ADME
- Particulars: recombinant CYP1B1, probe 7-ethoxyresorufin, time 40 min
Give the value in % but do not write % after it.

Here's what some known entries look like.
Structure smiles string: Nc1nc(-c2ccc(F)cc2)nc2c1ccc1ccccc12
Unit string: %
Observed result: 95
--
Structure smiles string: Nc1nc(-c2ccc(Cl)cc2)nc2ccccc12
Unit string: %
Observed result: 96
--
Structure smiles string: Nc1nc(-c2ccc(Br)cc2)nc2ccccc12
Unit string: %
Observed result: 96.4

Query :: What value of inhibition at 35 min, 1 µM has been recorded for this entry: CNc1nc(-c2ccc(I)cc2)nc2ccccc12.Cl
Result :: 97.1

Query :: What value of inhibition at 35 min, 1 µM has been recorded for this entry: Nc1nc(-c2ccc(Br)nc2)nc2ccccc12
Result :: 73.4

Query :: What value of inhibition at 35 min, 1 µM has been recorded for this entry: COC(=O)c1ccc(-c2nc(N)c3ccccc3n2)cc1
Result :: 92.7

Query :: What value of inhibition at 35 min, 1 µM has been recorded for this entry: Ic1ccc(-c2nc(N3CCCCC3)c3ccccc3n2)cc1
Result :: 91.1

Query :: What value of inhibition at 35 min, 1 µM has been recorded for this entry: Nc1nc(-c2cccc(Cl)c2)nc2c1ccc1ccccc12
Result :: 94.2

Query :: What value of inhibition at 35 min, 1 µM has been recorded for this entry: COc1ccc(-c2nc(N)c3ccccc3n2)cc1
Result :: 91.8

Query :: What value of inhibition at 35 min, 1 µM has been recorded for this entry: Nc1nc(-c2ccc(Oc3ccc(Cl)cc3Cl)cc2)nc2ccccc12
Result :: 27.6

Query :: What value of inhibition at 35 min, 1 µM has been recorded for this entry: CCCNc1nc(-c2ccc(I)cc2)nc2ccccc12
Result :: 94.2

Query :: What value of inhibition at 35 min, 1 µM has been recorded for this entry: Ic1ccc(-c2nc(NCc3ccccc3)c3ccccc3n2)cc1
Result :: 91.2

---

- Tested system: CYP1B1 (Homo sapiens, UniProt Q16678)
- Assay overview: Inhibition of human recombinant CYP1B1 using 7-ethoxyresorufin as substrate at 0.01 uM preincubated with enzyme for 5 mins followed by fluorescent substrate and NADPH addition and measured after 35 mins by EROD assay
- Type: ADME
- Particulars: recombinant CYP1B1, probe 7-ethoxyresorufin, time 40 min
Below, each entry is listed with its recorded inhibition at 35 min, 0.01 µM.
Give the value in % but do not write % after it.

Structure smiles string: CC(C)Nc1nc(-c2ccc(I)cc2)nc2ccccc12
Unit string: %
Observed result: 32.8
//
Structure smiles string: COC(=O)c1cccc(-c2nc(N)c3ccccc3n2)c1
Unit string: %
Observed result: 28.4

Query :: What value of inhibition at 35 min, 0.01 µM has been recorded for this entry: COC(=O)c1ccc(-c2nc(N)c3ccccc3n2)cc1
Result :: 15.9

Query :: What value of inhibition at 35 min, 0.01 µM has been recorded for this entry: CN(C)c1nc(-c2ccc(I)cc2)nc2ccccc12
Result :: 65.4

---

- Tested system: Cytochrome P450 1A2 (Homo sapiens)
- Sequence (P05177 whole entry): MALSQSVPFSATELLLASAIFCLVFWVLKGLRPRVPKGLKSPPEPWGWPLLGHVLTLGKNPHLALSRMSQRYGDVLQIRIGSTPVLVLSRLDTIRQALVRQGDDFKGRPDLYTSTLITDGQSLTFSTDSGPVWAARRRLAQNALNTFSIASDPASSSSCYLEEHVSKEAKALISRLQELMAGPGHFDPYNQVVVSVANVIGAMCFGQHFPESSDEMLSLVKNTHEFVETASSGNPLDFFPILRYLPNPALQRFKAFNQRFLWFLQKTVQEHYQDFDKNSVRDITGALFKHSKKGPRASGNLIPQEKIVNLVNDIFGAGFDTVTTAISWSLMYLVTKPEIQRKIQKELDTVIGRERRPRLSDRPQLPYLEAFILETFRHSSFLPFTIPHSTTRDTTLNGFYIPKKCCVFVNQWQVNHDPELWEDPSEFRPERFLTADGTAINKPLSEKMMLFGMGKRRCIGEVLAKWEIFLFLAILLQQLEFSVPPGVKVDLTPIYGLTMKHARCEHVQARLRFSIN
- Assay overview: Inhibition of human recombinant CYP1A2 using 7-ethoxyresorufin as substrate preincubated with enzyme for 5 mins followed by fluorescent substrate and NADPH addition and measured after 50 mins by EROD assay
Measurement kind: pIC50
Would you please state pIC50, meaning minus log10 of the concentration in mol/L, as a bare number?

Structure smiles string: CCNc1nc(-c2ccc(I)cc2)nc2ccccc12
Tested system: Cytochrome P450 1A2 (Homo sapiens)
pIC50: 6.01
//
Structure smiles string: Cl.FCCNc1nc(-c2ccc(I)cc2)nc2ccccc12
Tested system: Cytochrome P450 1A2 (Homo sapiens)
pIC50: 6.22
//
Structure smiles string: COc1ccc(-c2nc(N)c3ccccc3n2)cc1
Tested system: Cytochrome P450 1A2 (Homo sapiens)
pIC50: 5.23

Query :: Field: pIC50 (Cytochrome P450 1A2 (Homo sapiens)). Entry: FCCNc1nc(-c2ccc(I)cc2)nc2ccccc12
Result :: 6.14

Query :: Field: pIC50 (Cytochrome P450 1A2 (Homo sapiens)). Entry: Nc1nc(-c2ccc(Br)cc2)nc2ccccc12
Result :: 5.70

Query :: Field: pIC50 (Cytochrome P450 1A2 (Homo sapiens)). Entry: CNc1nc(-c2ccc(I)cc2)nc2ccccc12.Cl
Result :: 6.08

Query :: Field: pIC50 (Cytochrome P450 1A2 (Homo sapiens)). Entry: Cl.Nc1nc(-c2ccc(I)cc2)nc2ccccc12
Result :: 5.69

Query :: Field: pIC50 (Cytochrome P450 1A2 (Homo sapiens)). Entry: Nc1nc(-c2ccc(I)cc2)nc2ccccc12
Result :: 5.90

---

Below, each entry is listed with its recorded selectivity ratio.
- Tested on: CYP1A2 versus CYP1B1
- Assay overview: Selectivity ratio of IC50 for Inhibition of human recombinant CYP1A2 to IC50 for Inhibition of human recombinant CYP1B1
- Format: ADME
- Particulars: recombinant CYP1A2 and recombinant CYP1B1, read-out: Ratio IC50
Form: value (number only, do not type unit).

Structure smiles string: Nc1nc(-c2ccc(Br)cc2)nc2ccccc12
Observed result: 4060
//
Structure smiles string: CCNc1nc(-c2ccc(I)cc2)nc2ccccc12
Observed result: 4.72e+06
//
Structure smiles string: Cc1ccc(-c2nc(N)c3ccccc3n2)cc1
Observed result: 3160
//
Structure smiles string: Cl.FCCNc1nc(-c2ccc(I)cc2)nc2ccccc12
Observed result: 4030
//
Structure smiles string: Cl.Nc1nc(-c2ccc(I)cc2)nc2ccccc12
Observed result: 101000

Query :: What value of selectivity ratio has been recorded for this entry: COc1ccc(-c2nc(N)c3ccccc3n2)cc1
Result :: 2360

Query :: What value of selectivity ratio has been recorded for this entry: Nc1nc(-c2ccc(Br)cc2)nc2c1ccc1ccccc12
Result :: 256
